Reported values of HC50 at 10 min for individual entries
- experimentalProtocol: Photohemolysis in human RBC assessed as concentration required to 50% hemolysis under light exposure for 10 mins
- Assay type: ADME, cell-based, Erythrocyte
- testSettings: human red blood cells, read-out: Activity

[
  {
    "compound": "C=Cc1c(C)c2cc3nc(c(CC(=O)OC)c4[nH]c(cc5nc(cc1[nH]2)C(C)=C5CC)c(C)c4C(=O)NCCO)C(CCC(=O)OC)C3C (centres undefined) [PHEOPHORBIDE A ETHANOLAMIDE]",
    "HC50 at 10 min": "140 nM"
  },
  {
    "compound": "CC1=C(CCC(=O)O)c2cc3nc(cc4[nH]c(cc5[nH]c(cc1n2)c(C)c5C(C)O)c(C)c4C(C)O)C(C)=C3CCC(=O)O (centres undefined)",
    "HC50 at 10 min": "460 nM"
  },
  {
    "compound": "CCCOC(C)C1=C(C)c2cc3[nH]c(cc4nc(cc5[nH]c(cc1n2)c(C)c5CCC(=O)NCCO)C(CCC(=O)NCCO)=C4C)c(C)c3C(C)OCCC (centres undefined) [HEMATOPORPHYRIN PROPYLETHER ETHANOLAMIDE]",
    "HC50 at 10 min": "210 nM"
  },
  {
    "compound": "C=Cc1c(C)c2cc3nc(c4c5[nH]c(cc6nc(cc1[nH]2)C(C)=C6CC)c(C)c5C(=O)[C@@H]4C(=O)OC)[C@@H](CCC(=O)OC)[C@@H]3C [METHYL PHEOPHORBIDE A]",
    "HC50 at 10 min": "> 525 nM"
  }
]

---

- experimentalProtocol: Survival of human 2780.9S cells at 100 uM under deem light after 96 hrs by MTT assay relative to control
- Type: functional
- testSettings: read-out: Survival
Mark each entry condition met if its viability at 100 µM sits below 7%, and condition not met for all others.

[
  {
    "compound": "CCCOC(C)C1=C(C)c2cc3[nH]c(cc4nc(cc5[nH]c(cc1n2)c(C)c5CCC(=O)NCCO)C(CCC(=O)NCCO)=C4C)c(C)c3C(C)OCCC (stereo not given) [HEMATOPORPHYRIN PROPYLETHER ETHANOLAMIDE]",
    "assignedCategory": "condition met"
  },
  {
    "compound": "C=Cc1c(C)c2cc3nc(c4c5[nH]c(cc6nc(cc1[nH]2)C(C)=C6CC)c(C)c5C(=O)[C@@H]4C(=O)OC)[C@@H](CCC(=O)OC)[C@@H]3C [METHYL PHEOPHORBIDE A]",
    "assignedCategory": "condition not met"
  },
  {
    "compound": "CC1=C(CCC(=O)O)c2cc3nc(cc4[nH]c(cc5[nH]c(cc1n2)c(C)c5C(C)O)c(C)c4C(C)O)C(C)=C3CCC(=O)O (stereo not given) [HAEMAPORPHYRIN]",
    "assignedCategory": "condition not met"
  },
  {
    "compound": "C=Cc1c(C)c2cc3nc(c(CC(=O)OC)c4[nH]c(cc5nc(cc1[nH]2)C(C)=C5CC)c(C)c4C(=O)NCCO)C(CCC(=O)OC)C3C (stereo not given) [PHEOPHORBIDE A ETHANOLAMIDE]",
    "assignedCategory": "condition met"
  },
  {
    "compound": "COc1cccc2c1C(=O)c1c(O)c3c(c(O)c1C2=O)C[C@@](O)(C(=O)CO)C[C@@H]3O[C@H]1C[C@H](N)[C@H](O)[C@H](C)O1 [DOXORUBICIN]",
    "assignedCategory": "condition not met"
  }
]

---

- experimentalProtocol: Photohemolysis in human RBC at 520 nM under exposure to light for 10 mins
- Assay type: ADME, cell-based, Erythrocyte
- testSettings: human red blood cells, read-out: Activity
recordedEndpoint: hemolysis at 10 min, 0.52 µM (%)

[
  {
    "molecule": "C=Cc1c(C)c2cc3nc(c4c5[nH]c(cc6nc(cc1[nH]2)C(C)=C6CC)c(C)c5C(=O)[C@@H]4C(=O)OC)[C@@H](CCC(=O)OC)[C@@H]3C [METHYL PHEOPHORBIDE A]",
    "value": 18
  }
]

---

- experimentalProtocol: Survival of human H209 cells at 0.1 uM under deem light after 96 hrs by MTT assay relative to control
- Type: functional
- testSettings: NCI-H209, 96 h, read-out: Survival
Recorded measurements of viability at 0.1 µM, one per entry

[
  {
    "molecule": "C=Cc1c(C)c2cc3nc(c(CC(=O)OC)c4[nH]c(cc5nc(cc1[nH]2)C(C)=C5CC)c(C)c4C(=O)NCCO)C(CCC(=O)OC)C3C (stereo not given) [PHEOPHORBIDE A ETHANOLAMIDE]",
    "viability at 0.1 µM, %": 102
  },
  {
    "molecule": "COc1cccc2c1C(=O)c1c(O)c3c(c(O)c1C2=O)C[C@@](O)(C(=O)CO)C[C@@H]3O[C@H]1C[C@H](N)[C@H](O)[C@H](C)O1",
    "viability at 0.1 µM, %": 85.6
  },
  {
    "molecule": "CC1=C(CCC(=O)O)c2cc3nc(cc4[nH]c(cc5[nH]c(cc1n2)c(C)c5C(C)O)c(C)c4C(C)O)C(C)=C3CCC(=O)O (stereo not given)",
    "viability at 0.1 µM, %": 91.4
  },
  {
    "molecule": "C=Cc1c(C)c2cc3nc(c4c5[nH]c(cc6nc(cc1[nH]2)C(C)=C6CC)c(C)c5C(=O)[C@@H]4C(=O)OC)[C@@H](CCC(=O)OC)[C@@H]3C [METHYL PHEOPHORBIDE A]",
    "viability at 0.1 µM, %": 83.6
  },
  {
    "molecule": "CCCOC(C)C1=C(C)c2cc3[nH]c(cc4nc(cc5[nH]c(cc1n2)c(C)c5CCC(=O)NCCO)C(CCC(=O)NCCO)=C4C)c(C)c3C(C)OCCC (stereo not given) [HEMATOPORPHYRIN PROPYLETHER ETHANOLAMIDE]",
    "viability at 0.1 µM, %": 97.8
  }
]

---

As shown below, each of these compounds has a reported pIC50 value.
- System: Raji
- experimentalProtocol: Cytotoxicity against human Raji cells under deem light after 96 hrs by MTT assay
- Assay type: functional, cell-based
pIC50: −log10 of the molar value.
recordedEndpoint: pIC50

[
  {
    "compound": "CCCOC(C)C1=C(C)c2cc3[nH]c(cc4nc(cc5[nH]c(cc1n2)c(C)c5CCC(=O)NCCO)C(CCC(=O)NCCO)=C4C)c(C)c3C(C)OCCC (stereo not given) [HEMATOPORPHYRIN PROPYLETHER ETHANOLAMIDE]",
    "readoutRelation": "=",
    "value": 4.68
  },
  {
    "compound": "CC1=C(CCC(=O)O)c2cc3nc(cc4[nH]c(cc5[nH]c(cc1n2)c(C)c5C(C)O)c(C)c4C(C)O)C(C)=C3CCC(=O)O (stereo not given)",
    "readoutRelation": "=",
    "value": 4.24
  },
  {
    "compound": "C=Cc1c(C)c2cc3nc(c4c5[nH]c(cc6nc(cc1[nH]2)C(C)=C6CC)c(C)c5C(=O)[C@@H]4C(=O)OC)[C@@H](CCC(=O)OC)[C@@H]3C [METHYL PHEOPHORBIDE A]",
    "readoutRelation": "<",
    "value": 4.00
  },
  {
    "compound": "C=Cc1c(C)c2cc3nc(c(CC(=O)OC)c4[nH]c(cc5nc(cc1[nH]2)C(C)=C5CC)c(C)c4C(=O)NCCO)C(CCC(=O)OC)C3C (stereo not given) [PHEOPHORBIDE A ETHANOLAMIDE]",
    "readoutRelation": "=",
    "value": 4.46
  },
  {
    "compound": "COc1cccc2c1C(=O)c1c(O)c3c(c(O)c1C2=O)C[C@@](O)(C(=O)CO)C[C@@H]3O[C@H]1C[C@H](N)[C@H](O)[C@H](C)O1",
    "readoutRelation": "=",
    "value": 5.70
  }
]

---

- Tested on: SiHa
- experimentalProtocol: Survival of human SIHA cells at 100 uM under deem light after 96 hrs by MTT assay relative to control
- Type: functional
- testSettings: read-out: Survival
// reported viability at 100 µM per item

[
  {
    "compound": "CCCOC(C)C1=C(C)c2cc3[nH]c(cc4nc(cc5[nH]c(cc1n2)c(C)c5CCC(=O)NCCO)C(CCC(=O)NCCO)=C4C)c(C)c3C(C)OCCC (centres undefined) [HEMATOPORPHYRIN PROPYLETHER ETHANOLAMIDE]",
    "testedSystem": "SiHa",
    "viability at 100 µM": "6.7%"
  },
  {
    "compound": "C=Cc1c(C)c2cc3nc(c4c5[nH]c(cc6nc(cc1[nH]2)C(C)=C6CC)c(C)c5C(=O)[C@@H]4C(=O)OC)[C@@H](CCC(=O)OC)[C@@H]3C [METHYL PHEOPHORBIDE A]",
    "testedSystem": "SiHa",
    "viability at 100 µM": "68%"
  },
  {
    "compound": "CC1=C(CCC(=O)O)c2cc3nc(cc4[nH]c(cc5[nH]c(cc1n2)c(C)c5C(C)O)c(C)c4C(C)O)C(C)=C3CCC(=O)O (centres undefined)",
    "testedSystem": "SiHa",
    "viability at 100 µM": "44.5%"
  },
  {
    "compound": "C=Cc1c(C)c2cc3nc(c(CC(=O)OC)c4[nH]c(cc5nc(cc1[nH]2)C(C)=C5CC)c(C)c4C(=O)NCCO)C(CCC(=O)OC)C3C (centres undefined) [PHEOPHORBIDE A ETHANOLAMIDE]",
    "testedSystem": "SiHa",
    "viability at 100 µM": "1.1%"
  }
]
